Ref: PubChem BioAssay AID2060883

# Test system: 843782-103-R-J1-PDC complex spheroid viability;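 further: viability read after seven days of compound exposure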
# protocol-text: Anticancer human tumor 843782-103-R-J1-PDC patient-derived lung adenocarcinoma cell line growth inhibition [RAS]
# condition: second compound 0.03 µM; first compound 0.316 µM; hits give low values
# From the text: RAS pathway inhibitors in Combinations in Complex Spheroids A high-throughput screen of multi-cell type tumor spheroids was designed to identify active combinations of RAS pathway inhibitors and targeted small molecules. Complex spheroids include a stromal component modeled by human endothelial cells (HUVEC) and fibroblasts modeled by human mesenchymal stem cells (MSCs). […] Compounds. […] If the clinical Cmax for an agent had not been determined, the highest concentration tested was 10 microM. […]
assay-metric: viability, T/C (%)
Give the value, in units of %, as a plain number.

Observe how each entry below is paired with its result.
compound	viability, T/C, %
CC(=O)OC12COC1CC(O)C1(C)C(=O)C(O)C3=C(C)C(OC(=O)C(O)C(NC(=O)OC(C)(C)C)c4ccccc4)CC(O)(C(OC(=O)c4ccccc4)C21)C3(C)C (configuration not stated) + CCn1c(-c2cccnc2C(C)OC)c2c3cc(ccc31)N1CCOC(CC(NC(=O)C(C(C)C)N(C)C(=O)C3(F)CCN(C(=O)C#CC(C)(C)N(C)C)CC3)C(=O)N3CCCC(N3)C(=O)OCC(C)(C)C2)C1	6.65
O=C(c1ccc(F)c(F)c1Nc1ccc(I)cc1F)N1CC(O)([C@@H]2CCCCN2)C1 + CCn1c(-c2cccnc2C(C)OC)c2c3cc(ccc31)N1CCOC(CC(NC(=O)C(C(C)C)N(C)C(=O)C3(F)CCN(C(=O)C#CC(C)(C)N(C)C)CC3)C(=O)N3CCCC(N3)C(=O)OCC(C)(C)C2)C1	20.1
CC(C)NCC(C(=O)N1CCN(c2ncnc3c2C(C)CC3O)CC1)c1ccc(Cl)cc1 (configuration not stated) + CCn1c(-c2cccnc2C(C)OC)c2c3cc(ccc31)N1CCOC(CC(NC(=O)C(C(C)C)N(C)C(=O)C3(F)CCN(C(=O)C#CC(C)(C)N(C)C)CC3)C(=O)N3CCCC(N3)C(=O)OCC(C)(C)C2)C1	50.5
Nc1ccn(C2OC(CO)C(O)C2(F)F)c(=O)n1 (configuration not stated) + CCn1c(-c2cc(N3CCN(C)CC3)cnc2C(C)OC)c2c3cc(ccc31)-c1csc(n1)CC(NC(=O)C1CC1C)C(=O)N1CCCC(N1)C(=O)OCC(C)(C)C2	2.39
CCN1CCN(Cc2ccc(Nc3ncc(F)c(-c4cc(F)c5nc(C)n(C(C)C)c5c4)n3)nc2)CC1 + CCn1c(-c2cccnc2C(C)OC)c2c3cc(ccc31)N1CCOC(CC(NC(=O)C(C(C)C)N(C)C(=O)C3(F)CCN(C(=O)C#CC(C)(C)N(C)C)CC3)C(=O)N3CCCC(N3)C(=O)OCC(C)(C)C2)C1	56.4
CC1(O)CCCC1n1c(=O)c(C(F)F)cc2cnc(NC3CCN(S(C)(=O)=O)CC3)nc21 (configuration not stated) + CCn1c(-c2cccnc2C(C)OC)c2c3cc(ccc31)N1CCOC(CC(NC(=O)C(C(C)C)N(C)C(=O)C3(F)CCN(C(=O)C#CC(C)(C)N(C)C)CC3)C(=O)N3CCCC(N3)C(=O)OCC(C)(C)C2)C1	28.3

Now for another entry.
Kindly state the measured viability, T/C obtained for C=CC(=O)Nc1cc(Nc2nccc(-c3cn(C)c4ccccc34)n2)c(OC)cc1N(C)CCN(C)C + CCn1c(-c2cc(N3CCN(C)CC3)cnc2C(C)OC)c2c3cc(ccc31)-c1csc(n1)CC(NC(=O)C1CC1C)C(=O)N1CCCC(N1)C(=O)OCC(C)(C)C2 with 843782-103-R-J1-PDC complex spheroid viability.
17.6
